Literature survey of Ki (system: Plasminogen (Homo sapiens, UniProt P00747)).

Consider the reported Ki for these compounds:
{"COMPOUND": "NCc1ccc(Cl)cc1CNC(=O)[C@@H]1CCCN1C(=O)[C@@H](CC(=O)N1CC[C@@H](N)C1)NS(=O)(=O)Cc1ccccc1", "MEASURED_TARGET": "Plasminogen (Homo sapiens, UniProt P00747)", "PROPERTY": "Ki", "ASSAY_RESULT": "> 100 µM"}
{"COMPOUND": "CC(=O)Nc1ncc(S(=O)(=O)NCc2ccc(NC(=N)N)cc2)s1", "MEASURED_TARGET": "Plasminogen (Homo sapiens, UniProt P00747)", "PROPERTY": "Ki", "ASSAY_RESULT": "> 1000 µM"}
{"COMPOUND": "O=C(NCc1cc(Cl)ccc1-n1cnnn1)[C@@H]1C[C@H](O)CN1C(=O)[C@@H](CCC(=O)N1CCOCC1)NS(=O)(=O)Cc1ccccc1", "MEASURED_TARGET": "Plasminogen (Homo sapiens, UniProt P00747)", "PROPERTY": "Ki", "ASSAY_RESULT": "10.8 µM"}
{"COMPOUND": "CN(C(=O)CC[C@@H](NS(=O)(=O)Cc1ccccc1)C(=O)N1CCC[C@H]1C(=O)NCc1cc(Cl)ccc1CN)C1CCOCC1", "MEASURED_TARGET": "Plasminogen (Homo sapiens, UniProt P00747)", "PROPERTY": "Ki", "ASSAY_RESULT": "> 30 µM"}
{"COMPOUND": "N=C(N)c1ccc(CNC(=O)CNC(=O)[C@@H](CO)NS(=O)(=O)Cc2ccc(Cl)cc2)cc1", "MEASURED_TARGET": "Plasminogen (Homo sapiens, UniProt P00747)", "PROPERTY": "Ki", "ASSAY_RESULT": "32 µM"}
{"COMPOUND": "C[C@H](NC(=O)[C@@H](CO)NS(=O)(=O)Cc1ccc(C(=O)O)cc1)C(=O)NCc1ccc(C(=N)N)cc1", "MEASURED_TARGET": "Plasminogen (Homo sapiens, UniProt P00747)", "PROPERTY": "Ki", "ASSAY_RESULT": "3 µM"}
{"COMPOUND": "NCc1ccc(Cl)cc1CNC(=O)[C@@H]1CCN1C(=O)[C@@H](CCC(=O)N1CCOCC1)NS(=O)(=O)Cc1ccccc1", "MEASURED_TARGET": "Plasminogen (Homo sapiens, UniProt P00747)", "PROPERTY": "Ki", "ASSAY_RESULT": "> 40 µM"}
{"COMPOUND": "NCc1ccc(Cl)cc1CNC(=O)[C@@H]1CCCN1C(=O)[C@@H](CCC(=O)N1CCNCC1)NS(=O)(=O)Cc1ccccc1", "MEASURED_TARGET": "Plasminogen (Homo sapiens, UniProt P00747)", "PROPERTY": "Ki", "ASSAY_RESULT": "> 10 µM"}
{"COMPOUND": "CN(C(=O)C[C@@H](NS(=O)(=O)Cc1ccccc1)C(=O)N1CCC[C@H]1C(=O)NCc1cc(Cl)ccc1CN)C1CCOCC1", "MEASURED_TARGET": "Plasminogen (Homo sapiens, UniProt P00747)", "PROPERTY": "Ki", "ASSAY_RESULT": "> 20 µM"}
{"COMPOUND": "CC(C)OC(=O)NCc1ccc(NC(=N)N)cc1", "MEASURED_TARGET": "Plasminogen (Homo sapiens, UniProt P00747)", "PROPERTY": "Ki", "ASSAY_RESULT": "130 µM"}

Entry `CN(CC1CCNCC1)C(=O)C[C@@H](NS(=O)(=O)Cc1ccccc1)C(=O)N1CCC[C@H]1C(=O)NCc1cc(Cl)ccc1CN` under Plasminogen (Homo sapiens, UniProt P00747) had Ki of > 5 µM

Entry `COC(=O)N[C@](CCC(=O)OC(C)(C)C)(Cc1cccc(C(=N)N)c1)C(=O)NCC(=O)NCc1ccc(C(=N)N)s1` under Plasminogen (Homo sapiens, UniProt P00747) had Ki of > 2.5 µM

Entry `NCc1ccc(Cl)cc1CNC(=O)[C@@H]1CCCN1C(=O)[C@@H](CCC(=O)N1CCOCC1)NC(=O)Cc1ccccc1` under Plasminogen (Homo sapiens, UniProt P00747) had Ki of > 50 µM

Entry `NCc1ccc(Cl)cc1CNC(=O)[C@@H]1CCCN1C(=O)[C@@H](CC(=O)O)NS(=O)(=O)Cc1ccccc1` under Plasminogen (Homo sapiens, UniProt P00747) had Ki of > 10 µM

Entry `NCc1ccc(Cl)cc1CNC(=O)[C@@H]1CCCN1C(=O)[C@@H](CC(=O)N1CCCCC1)NS(=O)(=O)Cc1ccccc1` under Plasminogen (Homo sapiens, UniProt P00747) had Ki of 8 µM

Entry `N=C(N)c1ccc(CNC(=O)[C@H](CO)NC(=O)[C@@H](CO)NS(=O)(=O)Cc2cccc(C(=O)O)c2)cc1` under Plasminogen (Homo sapiens, UniProt P00747) had Ki of 4.2 µM
